# Test system: Pan troglodytes
# test summary: Compound was evaluated for diuretic activity in chimpanzee measured as increase in the number of microequivalents of K+ /min at 5 mg/kg
# Assay type: functional, Urine
What Increase was measured for each of the following?

Record excerpt, results attached:
Cc1c(OCC(=O)O)cc2c(c1Cl)C(=O)C1(CCCC1)C2=O [(ACYLARYLOXY)ACETIC ACID] : 39
CCC1(C)C(=O)c2cc(OCC(=O)O)c(Cl)c(Cl)c2C1=O (stereo not given) : 30

Go through the list and state Increase for each entry.
1. CCC1C(=O)c2cc(OCC(=O)O)c(C)c(C)c2C1=O (stereo not given)
2. Cc1c(OCc2nn[nH]n2)cc2c(c1Cl)C(=O)C1(CCCC1)C2=O
3. Cc1c(OCC(=O)O)cc2c(c1Cl)C(=O)C(C)(C1CCCC1)C2=O (stereo not given)

Result ::
30
2
54
